Every entry's value here was drawn from PubChem BioAssay (NCATS).

Can you tell me max response for the items I'm about to list?
Test system: KB-3-1
protocolText: Cytotoxic Profiling of Annotated Libraries Using Quantitative High-Throughput Screening (AID 1296008); further: on the % scale 0 is the no-effect control and ±100 the full control effect; nearly all actives have a fitted effect of over 60% in size
conditionDetails: Five cell lines viability, CellTiter-Glo ATP luminescence, 48-72 h; hits give low values
Results filed as inconclusive are left out.
Numbers only, in %.

Consider the reported max response for these molecules:
[
  {
    "molecule": "C=C(C)C(=O)O[C@H]1CC2=CC(C/C(C)=C\\[C@H]3OC(=O)C(=C)[C@H]13)OC2=O (stereo not given in full)",
    "assayReadout": "max response",
    "measuredResult": -20.7
  },
  {
    "molecule": "C=C[C@]1(C)C[C@H](O)[C@@H]2[C@H](OC(=O)[C@@H]2C)C1/C(C)=C/O[C@@H]1O[C@H](CO)[C@@H](O)[C@H](O)[C@H]1O (stereo not given in full)",
    "assayReadout": "max response",
    "measuredResult": 0.273
  },
  {
    "molecule": "CC(=O)OC1C(O)CC2(C)C(CCC(C)C23Cc2c(O)cc(CO)c(C=O)c2O3)C1(C)C (stereo not given)",
    "assayReadout": "max response",
    "measuredResult": 6.45
  },
  {
    "molecule": "Cn1ncnc1COc1nn2c(-c3cc(F)ccc3F)nnc2cc1C(C)(C)C",
    "assayReadout": "max response",
    "measuredResult": 8.68
  }
]

Cc1ccccc1C#Cc1ccc(CCC(=O)O)cc1 yielded max response of -11.6
